Each entry below carries its reported normalized growth.
Experiment: chemical genetic growth profiling, strain panel (AID 1159580);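 note: tested at 20 µM; growth read once vehicle control cultures reached saturation at 30 °C; 1 = growth at the plate median or of vehicle wells; lower values mean less growth of the strain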
Conditions: S. cerevisiae deletion strains, growth OD, locus YJL129C, strain trk1, active compounds read low
Out of some 5,500 compounds screened, about 2,000 (36%) were called active. Not shown: some 18% with an inconclusive outcome. The list shows a part of the results.
Test readout: normalized growth

{"columns": ["Compound", "Recorded value"],
 "data": [
  ["C=C1CCC(C2CC(=O)OC2=O)C(=O)CCC2C1CC2(C)C (stereo not given)", 0.989],
  ["O=C(O)CN1C(=O)c2cccc3cccc(c23)C1=O", 0.988],
  ["C#CCCCCCCCCCCCC(=O)CC(O)COC(C)=O (stereo not given)", 0.843],
  ["O=C(O)c1ccccc1-c1c2cc(Br)c(=O)cc-2oc2[c]([Hg])c(O)c(Br)cc12", 1.12],
  ["COc1cc2c(cc1OC)C1Cc3ccc(OC)c(OC)c3CN1CC2 (stereo not given)", 0.956],
  ["COC(=O)C(C)c1ccc(C(=O)c2cccs2)cc1 (stereo not given)", 1.04],
  ["CO/N=C(\\C(=O)NC1C(=O)N2C(C(=O)O)=C(COC(N)=O)CSC12)c1ccco1 (stereo not given)", 0.971],
  ["CCNC(=O)CC[C@H](N)C(=O)O", 0.999],
  ["Cc1c(Cl)cccc1Nc1ccccc1C(=O)O", 0.442],
  ["Clc1cccc(Cl)c1NC1=NCCN1", 0.97],
  ["C=C1CCC2C(CC2(C)C)C(=C)CC/C1=N\\O (stereo not given)", 0.994],
  ["CC[C@H](C)C(=O)O[C@H]1CCC=C2C=C[C@H](C)C(CCC3C[C@@H](O)CC(=O)O3)[C@H]21 (stereo not given in full)", 1.04],
  ["CC(C(=O)O)c1ccc(C(=O)c2cccs2)cc1 (stereo not given)", 0.982],
  ["CC(=O)Oc1c(C)cccc1C(=O)O", 1.04],
  ["CC1(C)NC(=O)N(c2ccc([N+](=O)[O-])c(C(F)(F)F)c2)C1=O", 0.991],
  ["C#CCCCCCCCCCCCC(O)CC(O)COC(C)=O (stereo not given)", 0.213],
  ["CCN(CC)C(=O)c1cccc(C)c1", 1.08],
  ["CC(=O)OCC(OC(C)=O)C(OC(C)=O)C(OC(C)=O)C(OC(C)=O)C(COC(C)=O)OC(C)=O (stereo not given)", 0.988],
  ["C=C1C(=O)O[C@@H]2C[C@@]3(C)CCC[C@H](C)C3=C[C@H]12", 0.76],
  ["CCC(C)C(=O)O[C@H]1C[C@H](O)C=C2C=C[C@H](C)[C@H](CC[C@@H](O)C[C@@H](O)CC(=O)O)C21 (stereo not given in full)", 1.02],
  ["C=C1CCC2C(CC2(C)C)C(=O)CCC1O (stereo not given)", 0.984],
  ["NS(=O)(=O)c1cc2c(cc1Cl)NC(C(Cl)Cl)NS2(=O)=O (stereo not given)", 0.968],
  ["O=C1OC2(c3ccc(O)cc3Oc3cc(O)ccc32)c2ccccc21", 1.04],
  ["Cc1cccc(Nc2ccccc2C(=O)O)c1C", 0.697],
  ["O=C(Cn1ccnc1[N+](=O)[O-])NCCO", 1.02],
  ["CCOC(=O)Nc1nc2ccccc2[nH]1", 1.03],
  ["Cc1ccc(Cl)c(Nc2ccccc2C(=O)O)c1Cl", 0.644],
  ["CO/N=C(\\C(=O)N[C@@H]1C(=O)N2C(C(=O)O)=C(CSc3nc(=O)c(O)nn3C)CS[C@H]12)c1csc(N)n1", 0.958],
  ["COC(=O)C[C@H]1C(C)(C)C(=O)[C@@H]2CC3=C(CC[C@]4(C)C3=CC(=O)O[C@H]4c3ccoc3)[C@@]1(C)C2=O", 0.959],
  ["CC(C)NCC(O)c1cc(O)cc(O)c1 (stereo not given)", 0.983],
  ["OC(Cn1cncn1)(Cn1cncn1)c1ccc(F)cc1F", 1.06],
  ["O=c1cc[nH]c(=S)[nH]1", 1.01],
  ["O=C(C1CCCCC1)N1CC(=O)N2CCc3ccccc3C2C1 (stereo not given)", 0.997],
  ["CC(C)C(C)/C=C/C(C)[C@H]1CCC2C3=CCC4CC(=O)CC[C@]4(C)C3CC[C@@]21C (stereo not given in full)", 0.998],
  ["CO/N=C(\\C(=O)N[C@@H]1C(=O)N2C(C(=O)O)=C(COC(C)=O)CS[C@H]12)c1csc(N)n1", 0.989],
  ["COC(=O)C1=CCCN(C)C1", 1.04],
  ["N[C@@H](CC(=O)N1CCn2c(nnc2C(F)(F)F)C1)Cc1cc(F)c(F)cc1F", 1.01],
  ["Cc1cc(NC(=O)C2=C(O)c3ccccc3S(=O)(=O)N2C)no1", 0.924],
  ["CO[C@@]1(NC(=O)CSCC#N)C(=O)N2C(C(=O)O)=C(CSc3nnnn3C)CSC21 (stereo not given in full)", 0.99],
  ["CCC(C)(C)C(=O)O[C@H]1C[C@@H](C)C=C2C=C[C@H](C)[C@H](CC[C@@H]3C[C@@H](O)CC(=O)O3)[C@H]21", 0.934]
]}
